Sourced from paper PMC3711439

Kd by entry:
Study system: PU.1 (human, UniProt P17947 1-270)
Protocol notes: MST; MST: 20 mM Tris-HCl pH 7.6, 1.5 mM MgCl2, 0.5 mM EGTA, 10% glycerol, 300 mM KCl, 10 mM DTT, 25 C; 50 nM Cy3-dsDNA, PU.1 1:1 dilutions from 23 uM
Test context: protein: recombinant; tags: N-terminal His-tag; label: Cy3 on upper strand
Recorded metric: Kd (nM)

[[record]]
binder = "PU.1 motif oligo 37 (dsDNA) DNA 1: ACGTCACTTCCTGCTAACGT DNA 2: ACGTTAGCAGGAAGTGACGT"
result = 794

[[record]]
binder = "PU.1 motif oligo 15 (dsDNA) DNA 1: ACGTGACTTCCTCTCTACGT DNA 2: ACGTAGAGAGGAAGTCACGT"
result = 324

[[record]]
binder = "PU.1 motif oligo 49 (dsDNA) DNA 1: ACGTCAGTTCCTCCTGACGT DNA 2: ACGTCAGGAGGAACTGACGT"
result = 929

